Quick reference for Max MFI among some binders
biological target: T1, human CCR8 (human, UniProt P51685 1-355); experiment: FACS on CHO-K1-human CCR8 cells
T1 construct: whole, on cells; also called hCCR8
T1 sequence (P51685 whole entry): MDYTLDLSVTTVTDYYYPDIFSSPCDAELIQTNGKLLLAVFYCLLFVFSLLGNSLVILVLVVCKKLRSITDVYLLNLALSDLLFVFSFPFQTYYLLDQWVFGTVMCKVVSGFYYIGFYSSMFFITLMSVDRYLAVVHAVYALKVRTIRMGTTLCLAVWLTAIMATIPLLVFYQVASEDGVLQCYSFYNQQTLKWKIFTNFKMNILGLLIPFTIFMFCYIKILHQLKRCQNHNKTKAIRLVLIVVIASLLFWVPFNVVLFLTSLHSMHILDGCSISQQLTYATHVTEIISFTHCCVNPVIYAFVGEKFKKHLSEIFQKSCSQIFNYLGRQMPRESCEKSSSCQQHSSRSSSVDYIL

The examples below pair each entry with its known result.
1) Hu149-14 (antibody, human IgG1, V domains shown, human IgG1) VH: EVQLVESGGGLVQPGGSLKLSCAASGFTFNTYAMNWVRQASGKGLEWVGRIRSKSNFYATAYAASVKGRFTISRDDSKNTAYLQMNSLKTEDTAVYYCTRGREYGSAYAMDYWGQGTLVTVSS VL: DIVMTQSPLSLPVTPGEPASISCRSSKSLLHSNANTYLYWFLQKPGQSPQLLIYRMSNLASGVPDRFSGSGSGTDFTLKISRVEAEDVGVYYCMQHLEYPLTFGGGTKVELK :: 663000 MFI
2) Hu149-15 (antibody, human IgG1, V domains shown, human IgG1) VH: EVQLVESGGGLVQPGGSLKLSCAASGFTFNTYAMNWVRQAPGKGLEWVGRIRSKSNFYATAYAASVKGRFTISRDDSKNTAYLQMNSLKTEDTAVYYCTRGRDYGSSYAMDYWGQGTLVTVSS VL: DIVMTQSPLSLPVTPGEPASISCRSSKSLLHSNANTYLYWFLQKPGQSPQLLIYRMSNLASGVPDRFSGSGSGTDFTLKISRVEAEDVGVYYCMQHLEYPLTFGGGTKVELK :: 627000 MFI

query: Tell me the measured Max MFI of Hu149-17 (antibody, human IgG1, V domains shown, human IgG1) VH: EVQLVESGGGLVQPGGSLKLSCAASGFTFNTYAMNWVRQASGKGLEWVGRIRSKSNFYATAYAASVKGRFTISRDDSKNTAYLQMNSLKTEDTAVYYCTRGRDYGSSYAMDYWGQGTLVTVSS VL: DIVMTQSPLSLPVTPGEPASISCRSSKSLLHSNANTYLYWFLQKPGQSPQLLIYRMSNLASGVPDRFSGSGSGTDFTLKISRVEAEDVGVYYCMQHLSYPLTFGGGTKVELK , please.
result: 645000 MFI

The reported numbers originate from patent US20250034266A1.
